Reference source for all entries: patent US12678446B2

- methodNotes: Liver microsomal stability, human
- Type: in vitro ADME
- protocolConditions: pooled liver microsomes, pH 7.4; human liver microsomes 0.5 mg/mL, 1 μM compound, NADPH, up to 45 min; read-out: Liver Microsomal Stability t½
valueType: half-life at 1 μM (h)
Numbers only, in h.

Record excerpt, results attached:
# get_value(readout='half-life at 1 μM', item= C[C@H]1CCn2nc(-c3ccccc3F)c(C(=O)N[C@H]3N=C(c4ccccc4)c4cccc(F)c4NC3=O)c2O1 [Example 27] ) 2.25

Please report the recorded half-life at 1 μM for C[C@@H]1CCn2nc(-c3ccccc3F)c(C(=O)N[C@H]3N=C(c4ccccc4)c4cccc(F)c4NC3=O)c2O1 [Example 25] . 16.8

Now for a further molecule.
Any idea what half-life at 1 μM was measured for CCc1ccc(-c2nn3c(c2C(=O)N[C@H]2N=C(c4ccccc4)c4cccc(F)c4NC2=O)OCCC3)cn1 [Example 106] ? 3.1

###

- Test system: Hep-G2 cells
- methodNotes: cell toxicity CC50
- Format: cell-based
- protocolConditions: mean of at least two experiments, read-out: Cell Cytotoxicity CC50
Provide the reported CC50 of each item.

Examples with answers:
Lab note: need CC50 for O=C(N[C@H]1N=C(c2ccccc2)c2cccc(F)c2NC1=O)c1c(-c2ccccc2F)nn2c1OC(CO)CC2 (stereo partly drawn) [Example 123] on Hep-G2 cells, anyone have it? > 25 µM

Form field: CC50 recorded for "CCNc1ccc(-c2nn3c(c2C(=O)N[C@H]2N=C(c4ccccc4)c4cccc(F)c4NC2=O)OCCC3)c(F)n1" with Hep-G2 cells (enter value) > 25 µM

Consider the additional compound presented here.
Under Hep-G2 cells: CC50 value of COCC1CCn2nc(-c3ccccc3F)c(C(=O)N[C@H]3N=C(c4ccccc4)c4cccc(F)c4NC3=O)c2O1 (single isomer, unassigned) ? > 25 µM

###

- methodNotes: Rat pharmacokinetics in vivo (IV 1 mg/kg, PO 10 mg/kg)
- Set-up: species or system Male rats [Sprague Dawley (SD)]
- protocolConditions: Sprague Dawley; male SD rat; plasma at 8 h; read-out: C 8 h
valueType: concentration at 8 h (ng/mL)
Answers are plain numbers, in ng/mL.

So what does the record say about concentration at 8 h for CCc1ccc(-c2nn3c(c2C(=O)N[C@H]2N=C(c4ccccc4)c4cccc(F)c4NC2=O)OCCC3)cn1 [Example 106] ? 271

Requested read-out: concentration at 8 h. Entry: C[C@@H]1CCn2nc(-c3ccccc3F)c(C(=O)N[C@H]3N=C(c4ccccc4)c4cccc(F)c4NC3=O)c2O1 [Example 25] 812

Please examine the following record next.
Would you mind telling me what concentration at 8 h value was observed for C[C@H]1CCn2nc(-c3ccccc3F)c(C(=O)N[C@H]3N=C(c4ccccc4)c4cccc(F)c4NC3=O)c2O1 [Example 27] ? 75.9

###

Hi there, I'd appreciate the recorded half-life for every entry that follows.
- methodNotes: Rat pharmacokinetics in vivo (IV 1 mg/kg, PO 10 mg/kg)
- Parameters: species or system Male rats [Sprague Dawley (SD)]
- protocolConditions: Sprague Dawley, plasma; male SD rat, PO 10 mg/kg; read-out: PO t½ (converted)
One number for each entry, in h.

Consider the worked cases shown below.
Could you share which half-life value was measured for C[C@H]1CCn2nc(-c3ccccc3F)c(C(=O)N[C@H]3N=C(c4ccccc4)c4cccc(F)c4NC3=O)c2O1 [Example 27] ? 2.8

So what's the measured half-life for this one? C[C@@H]1CCn2nc(-c3ccccc3F)c(C(=O)N[C@H]3N=C(c4ccccc4)c4cccc(F)c4NC3=O)c2O1 [Example 25] 3.4

New cases:
Suppose we examine the compound CCc1ccc(-c2nn3c(c2C(=O)N[C@H]2N=C(c4ccccc4)c4cccc(F)c4NC2=O)OCCC3)cn1 [Example 106] ; what half-life value has been reported? 3.6

###

So I've got a bunch of compounds here, and I need their Vd values.
- methodNotes: Rat pharmacokinetics in vivo (IV 1 mg/kg, PO 10 mg/kg)
- Parameters: species or system Male rats [Sprague Dawley (SD)]
- protocolConditions: Sprague Dawley, plasma; male SD rat, IV 1 mg/kg; read-out: Vd
I'd appreciate it if you included the unit after the number.

// Vd lookup, key: C[C@H]1CCn2nc(-c3ccccc3F)c(C(=O)N[C@H]3N=C(c4ccccc4)c4cccc(F)c4NC3=O)c2O1 [Example 27] 0.9 L/kg

Go through the list and state Vd for each entry.
1. CCc1ccc(-c2nn3c(c2C(=O)N[C@H]2N=C(c4ccccc4)c4cccc(F)c4NC2=O)OCCC3)cn1 [Example 106]
2. C[C@@H]1CCn2nc(-c3ccccc3F)c(C(=O)N[C@H]3N=C(c4ccccc4)c4cccc(F)c4NC3=O)c2O1 [Example 25]

0.7 L/kg
0.6 L/kg

###

Exercise: state measured Cmax for each of the molecules provided.
- methodNotes: Rat pharmacokinetics in vivo (IV 1 mg/kg, PO 10 mg/kg)
- Design: species or system Male rats [Sprague Dawley (SD)]
- protocolConditions: Sprague Dawley, plasma; male SD rat; IV 1 mg/kg, PO 10 mg/kg study; read-out: Cmax
One number for each entry, in µg/mL.

Below, 2 molecules whose answers are already recorded.
Endpoint output: Cmax of "C[C@@H]1CCn2nc(-c3ccccc3F)c(C(=O)N[C@H]3N=C(c4ccccc4)c4cccc(F)c4NC3=O)c2O1" . Value? 1.88

Return reported Cmax; argument: "C[C@H]1CCn2nc(-c3ccccc3F)c(C(=O)N[C@H]3N=C(c4ccccc4)c4cccc(F)c4NC3=O)c2O1" 0.96

Now, please, on to the next molecule.
Requested field: Cmax. Item: "CCc1ccc(-c2nn3c(c2C(=O)N[C@H]2N=C(c4ccccc4)c4cccc(F)c4NC2=O)OCCC3)cn1" 1.03

###

For each record, write down the corresponding AUC(0-t).
- methodNotes: Rat pharmacokinetics in vivo (IV 1 mg/kg, PO 10 mg/kg)
- Design: species or system Male rats [Sprague Dawley (SD)]
- protocolConditions: Sprague Dawley, plasma; male SD rat, PO 10 mg/kg; read-out: PO AUClast
Give bare numbers, in ng·h/mL.

# lookup: AUC(0-t) of "C[C@@H]1CCn2nc(-c3ccccc3F)c(C(=O)N[C@H]3N=C(c4ccccc4)c4cccc(F)c4NC3=O)c2O1" 14900

For every item below, please supply its AUC(0-t).
1. CCc1ccc(-c2nn3c(c2C(=O)N[C@H]2N=C(c4ccccc4)c4cccc(F)c4NC2=O)OCCC3)cn1
2. C[C@H]1CCn2nc(-c3ccccc3F)c(C(=O)N[C@H]3N=C(c4ccccc4)c4cccc(F)c4NC3=O)c2O1

5690
3140

###

- methodNotes: Hepatocyte stability, rat
- Format: in vitro ADME
- protocolConditions: cryopreserved pooled hepatocytes; rat hepatocytes 0.5×10^6 viable cells/mL, 3 μM compound, up to 60 min; read-out: Liver Hepatocyte Stability t½
- Procedure: Compounds were subjected to the following assays to investigate liver microsomal stability and hepatocyte stability. Hepatocyte Incubation: Experimental Procedure Cryopreserved pooled hepatocytes were purchased from a reputable commercial supplier and stored in liquid nitrogen prior to use. […] Following protein precipitation, the sample supernatants were combined in cassettes of up to 4 compounds and analysed using generic LC-MS/MS conditions. […]
For each of the compounds below, state its half-life at 3 μM.
Numbers only, in h.

Endpoint output: half-life at 3 μM of "C[C@@H]1CCn2nc(-c3ccccc3F)c(C(=O)N[C@H]3N=C(c4ccccc4)c4cccc(F)c4NC3=O)c2O1" . Value? 1.8

// query half-life at 3 μM value for entry "CCc1ccc(-c2nn3c(c2C(=O)N[C@H]2N=C(c4ccccc4)c4cccc(F)c4NC2=O)OCCC3)cn1" 1.59

// below: half-life at 3 μM requested for another compound
Record request: half-life at 3 μM value, item "C[C@H]1CCn2nc(-c3ccccc3F)c(C(=O)N[C@H]3N=C(c4ccccc4)c4cccc(F)c4NC3=O)c2O1" 8.08

###

- methodNotes: cell toxicity CC50
- Type: cell-based
- protocolConditions: human; Hep-G2 cells; mean of at least two experiments; read-out: Cell Cytotoxicity CC50
valueType: CC50

Field: example entries. Status: answers known.
Fill in the blank: the reported CC50 of C[C@@H]1CCn2nc(-c3cnn(CC(C)(C)O)c3)c(C(=O)N[C@H]3N=C(c4ccccc4)c4cccc(F)c4NC3=O)c2O1 [Example 122] is ____. > 25 µM

Quick check: CC50 of CC(C)Nc1ccc(-c2nn3c(c2C(=O)N[C@H]2N=C(c4ccccc4)c4cccc(F)c4NC2=O)O[C@@H](C)CC3)c(F)n1 [Example 31] ? > 25 µM

Which CC50 is reported for this molecule? CC1(Cn2cc(-c3nn4c(c3C(=O)N[C@H]3N=C(c5ccccc5)c5cccc(F)c5NC3=O)OCCC4)cn2)COC1 [Example 104] > 25 µM

Return reported CC50; argument: O=C(N[C@H]1N=C(c2ccccc2)c2cccc(F)c2NC1=O)c1c(-c2c(F)cccc2F)nn2c1OC(CO)CC2 (single isomer, unassigned) [Example 189-1] > 25 µM

Record request: CC50 value, item O=C(N[C@H]1N=C(c2ccccc2)c2cccc(F)c2NC1=O)c1c(-c2ccccc2F)nn2c1OC(CO)CC2 (single isomer, unassigned) [Example 190-1] > 25 µM

Any idea what its CC50 is? The molecule is CC(O)Cc1ccc(-c2nn3c(c2C(=O)N[C@H]2N=C(c4ccccc4)c4cccc(F)c4NC2=O)O[C@H](C)CC3)cn1 (stereo partly shown) [Example 78] > 25 µM

If you can, please state the reported CC50 value of C[C@@H]1CCn2nc(Nc3ccc(F)cc3)c(C(=O)N[C@H]3N=C(c4ccccc4)c4cccc(F)c4NC3=O)c2O1 [Example 97] . > 25 µM

Field request: CC50 | item: C[C@@H]1CCn2nc(-c3ccc(F)nc3N3C[C@@H]4C[C@H]3CO4)c(C(=O)N[C@H]3N=C(c4ccccc4)c4cccc(F)c4NC3=O)c2O1 (single isomer, unassigned) [Example 89] > 25 µM

List CC50 for every entry below, keeping the order given.
1. C[C@@H]1CCn2nc(Nc3ccccc3)c(C(=O)N[C@H]3N=C(c4ccccc4)c4ccccc4NC3=O)c2O1 [Example 96]
2. O=C(N[C@H]1N=C(c2ccccc2)c2cccc(F)c2NC1=O)c1c(-c2ccccc2F)nn2c1S(=O)(=O)CCC2 [Example 33]

> 25 µM
> 25 µM

For each of the molecules below, note its CC50.
1. Cc1cnc(F)c(-c2nn3c(c2C(=O)N[C@H]2N=C(c4ccccc4)c4cccc(F)c4NC2=O)OCCC3)c1 [Example 43]
2. C[C@@H]1CCn2nc(-c3ccccc3F)c(C(=O)N[C@H]3N=C(c4ccccc4)c4cccc(F)c4NC3=O)c2O1 [Example 25]
3. O=C(N[C@H]1N=C(c2ccccc2)c2ccccc2NC1=O)c1c(-c2cccnc2)nn2c1OCCC2 [Example 16]
4. O=C(N[C@H]1N=C(c2ccccc2)c2cccc(F)c2NC1=O)c1c(-c2c(F)cccc2F)nn2c1OCC(CO)C2 (mixture of isomers) [Example 129]
5. C[C@@H]1CCn2nc(-c3ccsc3)c(C(=O)N[C@H]3N=C(c4ccccc4)c4cccc(F)c4NC3=O)c2O1 [Example 63]

1: > 25 µM; 2: > 25 µM; 3: > 25 µM; 4: > 25 µM; 5: > 25 µM

Field: CC50. Fill in for each record below.
1. C[C@@H]1CCn2nc(-c3ccc(N4C[C@@H]5C[C@H]4CO5)nc3F)c(C(=O)N[C@H]3N=C(c4ccccc4)c4cccc(F)c4NC3=O)c2O1 (single isomer, unassigned) [Example 88]
2. CCc1ccc(-c2nn3c(c2C(=O)N[C@H]2N=C(c4ccccc4)c4cccc(F)c4NC2=O)O[C@@H](C)CC3)cn1 [Example 127]
3. COCC1CCn2nc(-c3ccccc3F)c(C(=O)N[C@H]3N=C(c4ccccc4)c4cccc(F)c4NC3=O)c2O1 (single isomer, unassigned) [Example 191-1]
4. C[C@@H]1CCn2nc(-c3cn[nH]c3)c(C(=O)N[C@H]3N=C(c4ccccc4)c4cccc(F)c4NC3=O)c2O1 [Example 159]

["> 25 µM", "> 25 µM", "> 25 µM", "> 25 µM"]

Batch of 4 molecules: report CC50 for each.
1. CC(C)Nc1ccc(-c2nn3c(c2C(=O)N[C@H]2N=C(c4ccccc4)c4cccc(F)c4NC2=O)OCCC3)c(F)n1 [Example 4]
2. O=C(N[C@H]1N=C(c2ccccc2)c2ccccc2NC1=O)c1c(-c2cnn(CC(F)(F)F)c2)nn2c1OCCC2 [Example 151]
3. C[C@@H]1CCn2nc(-c3ccoc3)c(C(=O)N[C@H]3N=C(c4ccccc4)c4cccc(F)c4NC3=O)c2O1 [Example 61]
4. O=C(N[C@H]1N=C(c2ccccc2)c2cccc(F)c2NC1=O)c1c(-c2ccccc2F)nn2c1OCC(O)C2 (stereo partly shown) [Example 160]

["> 25 µM", "> 25 µM", "> 25 µM", "> 25 µM"]

Please supply CC50 for each of the following items, keeping them in order.
1. CS(=O)(=O)CC1COc2c(C(=O)N[C@H]3N=C(c4ccccc4)c4cccc(F)c4NC3=O)c(-c3ccccc3F)nn2C1 (stereo partly shown) [Example 184]
2. CCCC1COc2c(C(=O)N[C@H]3N=C(c4ccccc4)c4cccc(F)c4NC3=O)c(-c3ccccc3F)nn2C1 (stereo partly shown) [Example 14]

["> 25 µM", "> 25 µM"]
